protocol_summary: HPLC determination of degradation products in particles after SEDS processing
Assay type: physicochemical
Protocol: High-Perfomance Liquid Chromatography (HPLC) Identification and quantification of degradation products were determined using HPLC technique. The amount of degradation products was calculated from the chromatograms as area-%. Thus, 0.2% area-procent means that the amount of degradation products was 0.2% of the initial weight of the substance. Particles were prepared in a modified SEDS equipment (Bradford Particle Design Limited, UK) from a solution, containing substance(s). […]
endpoint_name: Degradation products (a %)

1. COc1ccc2[n-]c([S+]([O-])Cc3ncc(C)c(OC)c3C)nc2c1.COc1ccc2[n-]c([S+]([O-])Cc3ncc(C)c(OC)c3C)nc2c1.[Mg+2] (stereo not drawn) [Experiment 1-4b, Omeprazole magnesium]
2. COc1ccc2[n-]c([S+]([O-])Cc3ncc(C)c(OC)c3C)nc2c1.COc1ccc2[n-]c([S+]([O-])Cc3ncc(C)c(OC)c3C)nc2c1.[Mg+2] (stereo not drawn) [Experiment 1-2b, Omeprazole magnesium]
3. COc1ccc2[n-]c([S+]([O-])Cc3ncc(C)c(OC)c3C)nc2c1.COc1ccc2[n-]c([S+]([O-])Cc3ncc(C)c(OC)c3C)nc2c1.[Mg+2] (stereo not drawn) [Experiment 1-1a, Omeprazole magnesium]
Exercise: Order the above compounds by increasing Degradation products. Give me the labels in the order the question wants.
Solution: 1, 2, 3
(1: 0.1 a %, 2: 0.2 a %, 3: 0.5 a %)

---

protocol_summary: HPLC determination of degradation products in particles after SEDS processing
Assay type: physicochemical
endpoint_name: degradation products (HPLC) (area %)

Example results:
compound	endpoint_name	readout_units	observed
COc1ccc2[n-]c([S+]([O-])Cc3ncc(C)c(OC)c3C)nc2c1.COc1ccc2[n-]c([S+]([O-])Cc3ncc(C)c(OC)c3C)nc2c1.[Mg+2] (centres unmarked) [Experiment 1-1a, Omeprazole magnesium]	degradation products (HPLC)	area %	0.5
COc1ccc2[n-]c([S+]([O-])Cc3ncc(C)c(OC)c3C)nc2c1.COc1ccc2[n-]c([S+]([O-])Cc3ncc(C)c(OC)c3C)nc2c1.[Mg+2] (centres unmarked) [Experiment 1-1b, Omeprazole magnesium]	degradation products (HPLC)	area %	0.2

P. COc1ccc2[n-]c([S+]([O-])Cc3ncc(C)c(OC)c3C)nc2c1.COc1ccc2[n-]c([S+]([O-])Cc3ncc(C)c(OC)c3C)nc2c1.[Mg+2] (centres unmarked) [Experiment 1-3a, Omeprazole magnesium]
Q. COc1ccc2[n-]c([S+]([O-])Cc3ncc(C)c(OC)c3C)nc2c1.COc1ccc2[n-]c([S+]([O-])Cc3ncc(C)c(OC)c3C)nc2c1.[Mg+2] (centres unmarked) [Experiment 1-3b, Omeprazole magnesium]
R. COc1ccc2[n-]c([S@@+]([O-])Cc3ncc(C)c(OC)c3C)nc2c1.COc1ccc2[n-]c([S@@+]([O-])Cc3ncc(C)c(OC)c3C)nc2c1.[Mg+2] [Experiment 2-1a, (S)-omeprazole magnesium]
Exercise: Rank order required: degradation products (HPLC), descending. Give me the labels in the order the question wants.
Solution: R, P, Q

---

protocol_summary: HPLC determination of degradation products in particles after SEDS processing
Assay type: physicochemical
endpoint_name: degradation products (HPLC) (area %)

compound	endpoint_name	observed
COc1ccc2[n-]c([S+]([O-])Cc3ncc(C)c(OC)c3C)nc2c1.COc1ccc2[n-]c([S+]([O-])Cc3ncc(C)c(OC)c3C)nc2c1.[Mg+2] (stereo not drawn) [Experiment 1-4b, Omeprazole magnesium]	degradation products (HPLC)	0.1

P. COc1ccc2[n-]c([S@@+]([O-])Cc3ncc(C)c(OC)c3C)nc2c1.COc1ccc2[n-]c([S@@+]([O-])Cc3ncc(C)c(OC)c3C)nc2c1.[Mg+2] [Experiment 2-1b, (S)-omeprazole magnesium]
Q. COc1ccc2[n-]c([S+]([O-])Cc3ncc(C)c(OC)c3C)nc2c1.COc1ccc2[n-]c([S+]([O-])Cc3ncc(C)c(OC)c3C)nc2c1.[Mg+2] (stereo not drawn) [Experiment 1-2b, Omeprazole magnesium]
Exercise: Higher degradation products (HPLC) between P and Q ? Please reply using the label of the selected record.
Solution: P
(P: 0.3 area %, Q: 0.2 area %)

---

protocol_summary: HPLC determination of degradation products in particles after SEDS processing
Format: physicochemical
endpoint_name: Degradation products (a %)

Example results:
molecule	Degradation products (a %)
COc1ccc2[n-]c([S+]([O-])Cc3ncc(C)c(OC)c3C)nc2c1.COc1ccc2[n-]c([S+]([O-])Cc3ncc(C)c(OC)c3C)nc2c1.[Mg+2] (centres unmarked) [Experiment 1-3a, Omeprazole magnesium]	0.4
COc1ccc2[n-]c([S@@+]([O-])Cc3ncc(C)c(OC)c3C)nc2c1.COc1ccc2[n-]c([S@@+]([O-])Cc3ncc(C)c(OC)c3C)nc2c1.[Mg+2] [Experiment 2-1a, (S)-omeprazole magnesium]	2.1
COc1ccc2[n-]c([S+]([O-])Cc3ncc(C)c(OC)c3C)nc2c1.COc1ccc2[n-]c([S+]([O-])Cc3ncc(C)c(OC)c3C)nc2c1.[Mg+2] (centres unmarked) [Experiment 1-3b, Omeprazole magnesium]	0.2

P. COc1ccc2[n-]c([S@@+]([O-])Cc3ncc(C)c(OC)c3C)nc2c1.COc1ccc2[n-]c([S@@+]([O-])Cc3ncc(C)c(OC)c3C)nc2c1.[Mg+2] [Experiment 2-1b, (S)-omeprazole magnesium]
Q. COc1ccc2[n-]c([S+]([O-])Cc3ncc(C)c(OC)c3C)nc2c1.COc1ccc2[n-]c([S+]([O-])Cc3ncc(C)c(OC)c3C)nc2c1.[Mg+2] (centres unmarked) [Experiment 1-1b, Omeprazole magnesium]
Exercise: Of P and Q , which carries the smaller reported Degradation products figure? Please reply using the label of the selected record.
Solution: Q

Data credit: patent US6596315B1
